All values here come from patent US20160362487A1.

assayed_system: T1, cynomolgus monkey IL-33 expressed with a C-terminal hexahistidine tag (cynomolgus monkey)
T1 construct: also called MfIL-33-6His; Mf-IL-33-6His
T1 chain: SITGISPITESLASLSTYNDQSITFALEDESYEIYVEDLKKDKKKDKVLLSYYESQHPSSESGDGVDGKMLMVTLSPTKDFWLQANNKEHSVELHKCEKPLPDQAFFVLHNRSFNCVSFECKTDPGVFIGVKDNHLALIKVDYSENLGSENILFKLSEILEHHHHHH
method_description: SPR 25C, pH6.0 chase, mAb captured
For each record, write down the corresponding t½ Ratio (pH 7.4/pH 6.0).
Simply state the number, no unit and no words.

Q) Name the recorded t½ Ratio (pH 7.4/pH 6.0) for H4H9633P (antibody, human IgG4, V domains shown, Human IgG4 Fc (H4H)) VH: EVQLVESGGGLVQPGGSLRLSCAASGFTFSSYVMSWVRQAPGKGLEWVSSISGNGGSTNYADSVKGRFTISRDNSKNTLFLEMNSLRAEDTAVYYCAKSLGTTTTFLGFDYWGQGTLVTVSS VL: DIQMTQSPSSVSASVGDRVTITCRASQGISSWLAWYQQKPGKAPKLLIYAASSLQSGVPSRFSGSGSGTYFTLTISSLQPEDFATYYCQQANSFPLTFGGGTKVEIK .
A) 0.3

Q) What about H4H9676P (antibody, human IgG4, V domains shown, Human IgG4 Fc (H4H)) VH: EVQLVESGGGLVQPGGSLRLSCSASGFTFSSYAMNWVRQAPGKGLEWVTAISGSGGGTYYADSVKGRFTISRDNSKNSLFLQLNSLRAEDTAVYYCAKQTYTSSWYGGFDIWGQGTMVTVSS VL: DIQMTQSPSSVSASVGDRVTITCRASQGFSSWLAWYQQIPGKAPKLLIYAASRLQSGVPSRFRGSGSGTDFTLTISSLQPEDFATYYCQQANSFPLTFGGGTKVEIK ?
A) 0.4

Q) What about H4H9629P (antibody, human IgG4, V domains shown, Human IgG4 Fc (H4H)) VH: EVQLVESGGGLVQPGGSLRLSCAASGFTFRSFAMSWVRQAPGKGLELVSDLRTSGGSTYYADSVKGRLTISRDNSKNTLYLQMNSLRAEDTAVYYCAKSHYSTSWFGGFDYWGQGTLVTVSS VL: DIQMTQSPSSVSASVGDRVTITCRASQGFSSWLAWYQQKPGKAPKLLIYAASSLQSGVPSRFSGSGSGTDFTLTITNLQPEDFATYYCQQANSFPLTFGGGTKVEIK ?
A) 2.7
